These entries and their values trace back to PubChem BioAssay (NCI).

# reported growth inhibition; entries follow
Assay: NCI Yeast Anticancer Drug Screen. Data for the sgs1 mgt1 strain (AID 161);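 also: 0% = growth of cultures given vehicle only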
Conditions: S. cerevisiae sgs1 mgt1 strain, at 50.0 µM, active compounds read high
This is part of a sample that, as a whole, favours compounds with a hit. Of some 79,000 tested, about 15% had one in any assay.
Please reply with the bare figure in % and do not write the unit itself.

Previously resolved entries follow.
O=C(CCC(=O)OCCCl)OCCCl
-5.6
O=NNc1ccc(Oc2ccccc2)cn1
-7.9
CCCc1nc(NC#N)nc(C(=O)NC23CC4CC(CC(C4)C2)C3)c1C
7.4
CCCC(=O)Nc1cccc(C(F)(F)F)c1
-11.4
Clc1ccc2nsnc2c1Cl
-3.75

Query: Answer with the recorded growth inhibition of N#Cc1c(N)nc(N)nc1Nc1ccc(Cl)cc1 only.
Result: 9.25

Query: In one line, give reported growth inhibition of the entry COc1ccc2c(c1)CC1c3[nH]c4ccccc4c3CCN1C2 (stereo unspecified) .
Result: 52.9

Query: Could you please provide reported growth inhibition for Nc1nc2ncn(COC(CO)CO)c2c(=O)[nH]1 ? Thanks!
Result: -2.3

Query: Report growth inhibition for O=C(c1ccncc1)n1nc(-c2ccccc2)c(N=Nc2ccccc2[N+](=O)[O-])c1-c1ccccc1
Result: -9.3

Query: Give the reported growth inhibition for this molecule. O/N=C1/CCCCC1NO (stereo unspecified)
Result: -32.2

Query: Query growth inhibition for CCCCNC(=O)OCCN=c1c2ccccc2ccc2ccccc12
Result: -9.95

Query: Report growth inhibition, nothing else, for this molecule: COc1cc(C=O)cc([N+](=O)[O-])c1O
Result: -2.2

Query: Answer with reported growth inhibition of Nc1cn[nH]c(=O)n1
Result: 2

Query: Complete the entry with growth inhibition for COC(=O)C(CCCCNC(=O)OCc1ccccc1)NC(=O)c1ccc(N(C)C=O)cc1 (stereo unspecified)
Result: -1.7

Query: # return recorded growth inhibition for input CN(C)CCC(=O)c1cccnc1
Result: -3.35

Query: Look up and state reported growth inhibition for Cc1ccccc1NC(=O)/C(C#N)=N\Nc1nc[nH]c1C(N)=O
Result: -11.8

Query: Return reported growth inhibition. Input molecule: Cc1c2n(c(=O)[nH]c1=O)C1OC(CO)C(N=[N+]=[N-])C1O2 (stereo unspecified)
Result: -42

Query: Entry Nc1ncnc2nc(N3CCN(CCO)CC3)[nH]c12 needs its growth inhibition filled in; supply it.
Result: -34.1

Query: Return growth inhibition (reported value) for this molecule: O=C(O)C1=CN=C(C(=O)O)NN1
Result: -28.8

Query: Indicate the recorded growth inhibition value for this molecule: C1CSCC2(COC2)CS1
Result: -9.65

###

Below, each entry is listed alongside its reported growth inhibition.
Test: NCI Yeast Anticancer Drug Screen. Data for the mlh1 rad18 strain (AID 175)
Conditions: S. cerevisiae mlh1 rad18 strain growth inhibition; at 50.0 µM; active compounds read high
This is part of a sample that, as a whole, favours compounds with a hit. Of some 79,000 tested, about 15% had one in any assay.
The response must be a number in % with no trailing unit.

In the examples that follow, each entry is paired with its recorded growth inhibition.
CCN(CC)C1Oc2cc3c(cc2C(c2cc(OC)c(O)c(OC)c2)C1C)OCO3 (centres undefined)
3.85
ON=C(C1CCCCC1)C1CCCCC1
-32.9
COC(=O)CCCCCNC(=O)NCCCCCC(=O)OC
19.1
COC(=O)CCS/C=C/C(=O)O
4.35
Cc1cc2cc(Cl)ccc2nc1C(=O)c1ccccc1
-18.7

Query: Look up and report measured growth inhibition for this entry: Cn1c(N)c2c(=O)n(C)c3c(c2c(C#N)c1=O)CCSc1ccccc1-3
Result: -1.9

Query: Supply growth inhibition value. Item: CCCC[N+](C)(CCCC)CCCC
Result: 3.3

Query: Supply reported growth inhibition belonging to this compound: N#CCCNCCC[Si]12OCCN(CCO1)CCO2
Result: 2.4

Query: Provide measured growth inhibition value, entry: CCOC(=O)c1ccc(NCc2ccc3oc(=O)c(-c4ccccc4)nc3c2)cc1
Result: -17.4

Query: Tell me growth inhibition reported for CCNc1nc2c(=O)n(C)c(=O)n(C)c2s1
Result: -5.65

Query: Output growth inhibition of CCOC(=O)C1=C(C)NC(C)=C(C(=O)OCC)C1
Result: 13.5

Query: Please give the documented growth inhibition of Cc1ccc(S(=O)(=O)Nn2c(-c3ccccc3)c(C#N)c(-c3ccc([N+](=O)[O-])cc3)c(C#N)c2=O)cc1
Result: 37

Query: For the compound CCCC(=O)Nc1ccccc1OC , give its measured growth inhibition value.
Result: -0.75
